- System: P388 leukemia ip, CD2F1 mice, survival T/C
- experiment_summary: NCI In Vivo Anticancer Drug Screen. Data for tumor model P388 Leukemia (intraperitoneal) in CD2F1 (CDF1) mice
- test_parameters: endpoint: median survival time; dose: 200.0 mg/kg/injection; schedule: Q04DX003 (ip); vehicle: saline with Tween-80; higher = longer survival
Toxic doses and inconclusive results are not listed.
readout_name: T/C

Q: # return T/C for O=C(c1cccs1)C1Cc2ccccc2C1=O (stereo not drawn) , test system: P388 leukemia ip, CD2F1 mice, survival T/C
Ans: 90 % of control

Q: # return T/C for CC12COC(=O)CC1CCC1C2CCC2(C)C1CCC2(C)O (stereo not drawn) , test system: P388 leukemia ip, CD2F1 mice, survival T/C
Ans: 104 % of control

Q: # return T/C for N#Cc1ncc(-c2ccccc2)nc1Cl , test system: P388 leukemia ip, CD2F1 mice, survival T/C
Ans: 100 % of control

====

- Test system: P388 leukemia ip, CD2F1 mice, survival T/C
- experiment_summary: NCI In Vivo Anticancer Drug Screen. Data for tumor model P388 Leukemia (intraperitoneal) in CD2F1 (CDF1) mice
- test_parameters: endpoint: median survival time; dose: 200.0 mg/kg/injection; schedule: Q01DX009 (ip); vehicle: saline with Tween-80; higher = longer survival
Toxic doses and inconclusive results are not listed.
For each of the compounds below, state its T/C.

Q: Provide only the value of recorded T/C for COc1ccc(CN2CC(C)N(N=Cc3c4c(O)c5c(O)c(C)c6c(c5c3O)C(=O)C(C)(O/C=C/C(OC)C(C)C(OC(C)=O)C(C)C(O)C(C)C(O)C(C)/C=C/C=C(\C)C(=O)N4)O6)C(C)C2)cc1 (centres undefined)
Ans: 119 % of control

Q: Provide only the value of recorded T/C for CN(C)c1ccc(N=Nc2ccc3ccc4cccc5ccc2c3c45)cc1
Ans: 102 % of control

Q: Provide only the value of recorded T/C for Cc1ccccc1NC(=O)c1ccc([N+](=O)[O-])cc1
Ans: 104 % of control

Q: Provide only the value of recorded T/C for C(=C\c1nc2ccccc2s1)/c1ccc2c(c1)OCO2
Ans: 100 % of control

====

For each of the molecules below, state its T/C.
- Tested on: P388 leukemia ip, CD2F1 mice, survival T/C
- experiment_summary: NCI In Vivo Anticancer Drug Screen. Data for tumor model P388 Leukemia (intraperitoneal) in CD2F1 (CDF1) mice
- test_parameters: endpoint: median survival time; dose: 200.0 mg/kg/injection; schedule: Q01DX009 (ip); vehicle: saline with Tween-80; higher = longer survival
Toxic doses and inconclusive results are not listed.

Q: # return T/C for N#C/C(=C\c1cccs1)c1ccccc1 , test system: P388 leukemia ip, CD2F1 mice, survival T/C
Ans: 100 % of control

Q: # return T/C for Cc1ccc(CSCc2c(CSCc3ccc(C)cc3)c(CSCc3ccc(C)cc3)c(CSCc3ccc(C)cc3)c(CSCc3ccc(C)cc3)c2CSCc2ccc(C)cc2)cc1 , test system: P388 leukemia ip, CD2F1 mice, survival T/C
Ans: 86 % of control

Q: # return T/C for C1CCC(N2OC23CCCCC3)CC1 (stereo not drawn) , test system: P388 leukemia ip, CD2F1 mice, survival T/C
Ans: 113 % of control

Q: # return T/C for CN(O)C1=c2ccccc2=NC1=O , test system: P388 leukemia ip, CD2F1 mice, survival T/C
Ans: 114 % of control

Q: # return T/C for CC(c1ccccc1)N1C(=O)CSC1=S (stereo not drawn) , test system: P388 leukemia ip, CD2F1 mice, survival T/C
Ans: 100 % of control

Q: # return T/C for C=CCNC(=S)Nc1sc(C)c(C)c1C(=O)OCC , test system: P388 leukemia ip, CD2F1 mice, survival T/C
Ans: 97 % of control

Q: # return T/C for CC(=O)C(CO)C(=O)Nc1ccccc1 (stereo not drawn) , test system: P388 leukemia ip, CD2F1 mice, survival T/C
Ans: 95 % of control

Q: # return T/C for CCCCCCC(/C=C/c1ccc(N(C)C)cc1)=N\O , test system: P388 leukemia ip, CD2F1 mice, survival T/C
Ans: 93 % of control

Q: # return T/C for CCOC(=O)c1ccc(Nc2sc(C(=O)c3ccc(Br)cc3)c(N)c2C#N)cc1 , test system: P388 leukemia ip, CD2F1 mice, survival T/C
Ans: 90 % of control

Q: # return T/C for CCOC(=O)c1cccc(C(=O)OCC)c1 , test system: P388 leukemia ip, CD2F1 mice, survival T/C
Ans: 108 % of control

Q: # return T/C for O=C(c1ccccc1)c1ccccc1NC(=O)C(F)(F)F , test system: P388 leukemia ip, CD2F1 mice, survival T/C
Ans: 96 % of control

Q: # return T/C for COC(=O)c1ccccc1NC(C)=NC(C)(C)C , test system: P388 leukemia ip, CD2F1 mice, survival T/C
Ans: 90 % of control

Q: # return T/C for NCCCCC(NC(=O)c1ccccc1)C(=O)O (stereo not drawn) , test system: P388 leukemia ip, CD2F1 mice, survival T/C
Ans: 104 % of control

Q: # return T/C for CCOC(=O)c1cnn(-c2ccccc2)c1N , test system: P388 leukemia ip, CD2F1 mice, survival T/C
Ans: 96 % of control

Q: # return T/C for CCOC(=O)C1=C(C)N(Cc2ccccc2)C(C)=C(C(=O)OCC)C1(C)C , test system: P388 leukemia ip, CD2F1 mice, survival T/C
Ans: 118 % of control

Q: # return T/C for CC(C)(C)N=C(CCC(C#N)(C#N)CCC(=NC(C)(C)C)Nc1ccc([N+](=O)[O-])cc1)Nc1ccc([N+](=O)[O-])cc1 , test system: P388 leukemia ip, CD2F1 mice, survival T/C
Ans: 88 % of control

Q: # return T/C for CC(=O)OC1=C2OC(=O)C3(C2C=CC=C1)C1C=CC=CC13 (stereo not drawn) , test system: P388 leukemia ip, CD2F1 mice, survival T/C
Ans: 111 % of control

Q: # return T/C for O=c1[nH]c2ccccc2n1CCCN1CCN(C(c2ccccc2)c2ccccc2)CC1 , test system: P388 leukemia ip, CD2F1 mice, survival T/C
Ans: 95 % of control

Q: # return T/C for CC(=O)OCc1ncccc1OC(C)=O , test system: P388 leukemia ip, CD2F1 mice, survival T/C
Ans: 109 % of control

Q: # return T/C for O=C(OCC1C=C(OC(=O)c2ccccc2)C(=O)C(OC(=O)c2ccccc2)O1)c1ccccc1 (stereo not drawn) , test system: P388 leukemia ip, CD2F1 mice, survival T/C
Ans: 102 % of control

Q: # return T/C for O=C1C=CC(=O)N1c1ccc(I)cc1Cl , test system: P388 leukemia ip, CD2F1 mice, survival T/C
Ans: 96 % of control

Q: # return T/C for Cc1ccc(C(=O)/C=C/c2ccccc2)cc1 , test system: P388 leukemia ip, CD2F1 mice, survival T/C
Ans: 109 % of control

Q: # return T/C for O=[N+]([O-])c1cc(NC(=S)SCc2ccc(Cl)cc2)ccc1Cl , test system: P388 leukemia ip, CD2F1 mice, survival T/C
Ans: 106 % of control
